For reference, Ki measured on Alpha-1A adrenergic receptor (Homo sapiens, UniProt P35348):
Put down the number, then write its unit next to it.

CNC(=O)C1=C(C)NC(=O)N(C(=O)NCCCN2CCC(C(=O)OC)(c3ccccc3)CC2)C1c1ccc([N+](=O)[O-])cc1 (centres undefined) = 2.1 nM
COC(=O)C1=C(C)NC(=O)N(C(=O)NCCCN2CCC(C(=O)OC)(c3ccccc3)CC2)C1c1ccc2nonc2c1 (centres undefined) = 0.1 nM
COC(=O)C1(c2ccccc2)CCN(CCCNC(=O)N2C(=O)NC(C)=C(C(N)=O)C2c2ccc([N+](=O)[O-])cc2)CC1 (centres undefined) = 0.7 nM
COC(=O)C1=C(C)NC(=O)N(C(=O)NCCCN2CCC(C(=O)OC)(c3ccccc3)CC2)C1c1ccc(Cl)cc1 (centres undefined) = 4.5 nM
CCOC(=O)C1=C(C)NC(=O)N(C(=O)NCCCN2CCC(C(=O)OC)(c3ccccc3)CC2)C1c1ccc([N+](=O)[O-])cc1 (centres undefined) = 0.3 nM
COC(=O)C1=C(C)NC(=O)N(C(=O)NCCCN2CCC(C(=O)OC)(c3ccccc3)CC2)C1c1ccc(C)cc1 (centres undefined) = 8 nM
CCC1=C(C(=O)NC)C(c2ccc([N+](=O)[O-])cc2)N(C(=O)NCCCN2CCC(C(=O)OC)(c3ccccc3)CC2)C(=O)N1 (centres undefined) = 1.2 nM
COC(=O)C1(c2ccccc2)CCN(CCCNC(=O)N2C(=O)NC(C)=C(C(=O)O)C2c2ccc([N+](=O)[O-])cc2)CC1 (centres undefined) = 10 nM

For each of the items listed, what is its Ki?
1. COC(=O)C1=C(C)NC(=O)N(C(=O)NCCCN2CCC(C(=O)OC)(c3ccccc3)CC2)C1c1cccc(Cl)c1 (centres undefined)
2. CCC1=C(C(=O)OC)C(c2ccc([N+](=O)[O-])cc2)N(C(=O)NCCCN2CCC(C(=O)OC)(c3ccccc3)CC2)C(=O)N1 (centres undefined)
3. COC(=O)C1=C(C)NC(=O)N(C(=O)NCCCN2CCC(C(=O)OC)(c3ccccc3)CC2)C1c1cccc(F)c1 (centres undefined)
4. COC(=O)C1=C(C)NC(=O)N(C(=O)NCCCN2CCC(C(=O)OC)(c3ccccc3)CC2)C1c1ccc(F)cc1 (centres undefined)
5. COC(=O)C1=C(C)NC(=O)N(C(=O)NCCCN2CCC(C(=O)OC)(c3ccccc3)CC2)C1c1ccc(F)cc1F (centres undefined)

1.1 nM
0.8 nM
1.5 nM
1.2 nM
0.2 nM

Quick check: Ki of COC(=O)C1=C(C)NC(=O)N(C(=O)NCCCN2CCC(C(=O)OC)(c3ccccc3)CC2)C1c1cccc(C)c1 (centres undefined) ? 1.8 nM

Source of measurements: ChEMBL document CHEMBL1132476
